For each record, write down the corresponding GI50.
System: TK-10
Measurement description: NCI tumour cell line growth inhibition, 48 h
Activity calls are given as the source filed them. No stated cut-off is given here; in the data, active = GI50 up to about 1.1 µM and inactive = higher.

Solved cases below.
Compound	System name	GI50
O=C1c2cc3c(cc2CC12Cc1ccc4c(c1C2=O)CCC4)CCCC3 (stereo not given)	TK-10	> 100 µM (inactive)
O=C(NC(Cc1c[nH]c2ccccc12)C(=O)Nc1ccc(Br)cc1)OCc1ccccc1 (stereo not given)	TK-10	14.9 µM (inactive)
O=C(NCc1ccc2ccc3cccnc3c2n1)c1ccc[n+](Cc2ccccc2)c1	TK-10	> 100 µM (inactive)

Dear colleague, could you send me GI50 for each of the items below? Thanks.
1. COC1CC(C)(NC(=O)C(F)(F)F)C2OC(c3ccccc3)OCC2O1 (stereo not given)
2. CCN(CC)CCN1c2ccccc2Sc2ccc3ccccc3c21
3. N#CC(C(=O)C(=O)NCCCNC(=O)C(=O)C(C#N)c1ccccc1)c1ccccc1 (stereo not given)
4. Cc1ccc(C2=Nc3ccccc3SC(c3cccc4c3OCO4)C2)cc1 (stereo not given)
5. Fc1ccc(C(OCCN2CC3CC2CN3CCCc2ccccc2)c2ccc(F)cc2)cc1 (stereo not given)
6. Cc1ccc(S(=O)(=O)C2c3nc4ccccc4cc3-c3nc4ccccc4nc32)cc1 (stereo not given)
7. COc1ccc(C2C3CCc4ccccc4C3=NN2S(=O)(=O)c2cccc(C(=O)O)c2OC)cc1 (stereo not given)

result:
1: > 100 µM (inactive); 2: 1.67 µM (inactive); 3: > 100 µM (inactive); 4: 21.2 µM (inactive); 5: 11.2 µM (inactive); 6: > 100 µM (inactive); 7: 22.9 µM (inactive)

###

System: SF-268
Measurement description: NCI tumour cell line growth inhibition, 48 h
Calls of active or inactive are those of the source. Rule as the data show it: active = GI50 up to about 1.1 µM and inactive = higher.
Select the correct class. Options are active, inactive and nothing else.

Molecule	Discrete label
C/C(Nc1ccc(F)cc1)=C1/CCOC1=O	inactive

Now consider the entry below.
query: Could you kindly confirm the outcome this assay logged for O=C1OCC=C1COC1OC(CO)C(O)C(O)C1O (stereo not given) ?
result: inactive

###

System: RPMI-8226
Measurement description: NCI tumour cell line growth inhibition, 48 h
Active and inactive are the calls of the source. No stated cut-off is given here; in the data, active = GI50 up to about 1.1 µM and inactive = higher.
Observation type: GI50

Solved cases below.
Compound	GI50
CC(C)(C)N/C(N)=N/C#N	> 100 µM (inactive)
O=CC1OC(=O)c2cc(O)c(O)c(O)c2-c2c(cc(O)c(O)c2O)C(=O)OC1C1OC(=O)c2cc(O)c(O)c(O)c2-c2c(O)c(O)c3oc(=O)c4c(c(O)c(O)c5oc(=O)c2c3c54)-c2c(cc(O)c(O)c2O)C(=O)OCC1O (centres undefined)	57.8 µM (inactive)
CC1=NC(=Cc2ccc(Cl)cc2)C(=O)N1n1c(-c2ccccc2)nc2ccccc2c1=O	34.1 µM (inactive)
CS(=O)(=O)c1nc(-c2cc3c(c(S(C)(=O)=O)n2)CCC3)cc2c1CCC2	> 100 µM (inactive)
CCCCCCCC1(N=[N+]=[N-])C(=O)c2ccccc2N(C)C1=O (centres undefined)	56.1 µM (inactive)

Dear colleague, could you send me GI50 for each of the items below? Thanks.
1. COC(=O)c1ccc(NCc2cc(OC)ccc2OC)cc1
2. O=c1c(C(c2ccc(/C=C/c3ccccc3)cc2)c2c(O)oc3ccccc3c2=O)c(O)oc2ccccc12
3. N#CC(CCN1CCC(Nc2ccccc2)(c2nnnn2C2CCCCC2)CC1)(c1ccccc1)c1ccccc1
4. CSc1ccc(/C=C2\N=C(c3ccccc3)N(c3nc4c(Cl)cc(Cl)cc4s3)C2=O)cc1

result:
1: 65.8 µM (inactive); 2: 27.2 µM (inactive); 3: > 100 µM (inactive); 4: 22.5 µM (inactive)

###

Test system: CCRF-CEM
Measurement description: NCI tumour cell line growth inhibition, 48 h
The source made the active and inactive calls. No stated cut-off is given here; in the data, active = GI50 up to about 1.1 µM and inactive = higher.
Select the correct class. Options are 1 (yes) = active, 0 (no) = inactive and nothing else.

Compound	System name	Discrete label
Cc1ccc(S(=O)(=O)NCCCSCCN)cc1	CCRF-CEM	0 (no)
NC(=O)NC(=O)c1cnccn1	CCRF-CEM	0 (no)
CSCC[C@H](NC(=O)[C@H](CC(C)C)NC(=O)[C@@H](Cc1ccccc1)NC(=O)CNC(=O)[C@@H](NC(=O)[C@H](C)NC(=O)[C@H](Cc1c[nH]c2ccccc12)NC(=O)[C@H](CCC(N)=O)NC(=O)[C@H](N)CC(N)=O)C(C)C)C(N)=O	CCRF-CEM	0 (no)
CC(=O)OCc1cn(S(=O)(=O)c2ccc(C)cc2)cn1	CCRF-CEM	0 (no)

query: Could you kindly confirm the outcome this assay logged for CC(C)N(C)C(=O)C12C3C4C1C1C2C3C41C#N (configuration not stated) ?
result: 0 (no)

query: Could you kindly confirm the outcome this assay logged for "Oc1ccc(-c2nc(-c3cccnc3)c(-c3ccc(F)cc3)[nH]2)cc1" ?
result: 0 (no)

query: Could you kindly confirm the outcome this assay logged for COC(=O)/C=C(/C=C1/C(C#N)=C(N)N(c2ccc(Cl)cc2)C1(C)/C(=C\C(=O)OC)C(=O)OC)C(=O)OC (configuration not stated) ?
result: 0 (no)

query: Could you kindly confirm the outcome this assay logged for "O=S1(=O)CSc2ccc3ccccc3c2-c2c1ccc1ccccc21" ?
result: 0 (no)

query: Could you kindly confirm the outcome this assay logged for "CC1=C(C)C(=O)C2=C(OCCO2)C1=O" ?
result: 0 (no)

query: Could you kindly confirm the outcome this assay logged for COc1cc([C@@H]2OCC3C(c4ccc5c(c4)OCO5)OCC32)cc(OC)c1OC (some centres not stated) ?
result: 0 (no)

###

Test system: SNB-19
Measurement description: NCI tumour cell line growth inhibition, 48 h
Calls of active or inactive are those of the source. Rule as the data show it: active = GI50 up to about 1.1 µM and inactive = higher.
Select the correct class. Options are t (active), f (inactive) and nothing else.

query: Could you kindly confirm the outcome this assay logged for O=C(CNc1c(Cl)cccc1Cl)NC1C=Cc2ccc(S(=O)(=O)Nc3c(Cl)cccc3Cl)cc2C1=O (centres undefined) ?
result: f

query: Could you kindly confirm the outcome this assay logged for O=C1CC2(CCC(O)(c3ccc4ccccc4c3)C(C(=O)c3ccc4ccccc4c3)C2)C(=O)c2ccccc2N1 (centres undefined) ?
result: f

###

Test system: LOX IMVI
Measurement description: NCI tumour cell line growth inhibition, 48 h
Calls of active or inactive are those of the source. No stated cut-off is given here; in the data, active = GI50 up to about 1.1 µM and inactive = higher.
Select the correct class. Options are active, inactive and nothing else.

Below, 5 compounds whose answers are already recorded.
Compound	Discrete label
Cc1ccc(S(=O)(=O)NCCCSCCN)cc1	active
Cc1nc(N)sc1C(=O)/C=C/c1ccc(/C=C/C(=O)c2sc(NC(=O)CCCCCCCCC(=O)Nc3nc(C)c(C(=O)/C=C/c4ccc(/C=C/C(=O)c5sc(N)nc5C)cc4)s3)nc2C)cc1	inactive
O=C(Nc1ccccc1Cl)c1cc(S(=O)(=O)Nc2n[nH]c(=O)n2-c2ccccc2)c(S)cc1Cl	inactive
CCN1CC2=C(N=c3s/c(=C\c4ccc(Cl)cc4)c(=O)n3C2c2ccc(Cl)cc2)/C(=C/c2ccc(Cl)cc2)C1 (configuration not stated)	inactive
[O-][S+]1c2ccccc2N=C(c2ccc3ccccc3c2)CC1c1ccccc1F (configuration not stated)	inactive

query: Could you kindly confirm the outcome this assay logged for C=C(C)C1Cc2c(cc(OC)c3c(=O)c4cccc(O)c4oc23)O1 (configuration not stated) ?
result: inactive

query: Could you kindly confirm the outcome this assay logged for "CCCc1c(O)nc2ccccc2c1O" ?
result: inactive

query: Could you kindly confirm the outcome this assay logged for COC(=O)C(CC(=O)Nc1ccc(C)cc1)C(=O)C(=O)Nc1c(C(C)C)cccc1C(C)C (configuration not stated) ?
result: inactive

query: Could you kindly confirm the outcome this assay logged for O=C1C2c3[nH]c4ccccc4c3C3CCSCC3C2C(=O)N1c1ccccc1 (configuration not stated) ?
result: inactive

query: Could you kindly confirm the outcome this assay logged for "CSCC[C@H](NC(=O)[C@H](CC(C)C)NC(=O)[C@@H](Cc1ccccc1)NC(=O)CNC(=O)[C@@H](NC(=O)[C@H](C)NC(=O)[C@H](Cc1c[nH]c2ccccc12)NC(=O)[C@H](CCC(N)=O)NC(=O)[C@H](N)CC(N)=O)C(C)C)C(N)=O" ?
result: inactive

query: Could you kindly confirm the outcome this assay logged for "c1coc(-c2nccc3c2[nH]c2ccccc23)c1" ?
result: inactive

query: Could you kindly confirm the outcome this assay logged for O=C1c2ccccc2C(=O)C2NC(CCCCCSSCCCCCC3=NC4C(=O)c5ccccc5C(=O)C4N3)=NC12 (configuration not stated) ?
result: inactive

###

Test system: HCC 2998
Measurement description: NCI tumour cell line growth inhibition, 48 h
Active and inactive are the calls of the source. No stated cut-off is given here; in the data, active = GI50 up to about 1.1 µM and inactive = higher.
Observation type: GI50

Compound	System name	GI50
Cc1cc2c(c(/C=N/c3ccccc3O)c1)OC1(C=C2)Oc2ccccc2C(=O)N1C (configuration not stated)	HCC 2998	15.8 µM (inactive)
CC(=O)OC1C(CCl)OC(N=[N+]=[N-])C(OC(C)=O)C1OC(C)=O (configuration not stated)	HCC 2998	> 100 µM (inactive)
c1ccc2c(c1)c1c(n2CCOCCCN2CCCCC2)CCCC1	HCC 2998	18 µM (inactive)

Dear colleague, could you send me GI50 for each of the items below? Thanks.
1. CC[C@@H]1CC[C@@H]2[C@H](CC[C@]3(C)[C@@H](OS(=O)(=O)c4ccc(C)cc4)CC[C@@H]23)[C@H]1CO
2. CSCC[C@H](NC(=O)[C@H](CC(C)C)NC(=O)[C@@H](Cc1ccccc1)NC(=O)CNC(=O)[C@@H](NC(=O)[C@H](C)NC(=O)[C@H](Cc1c[nH]c2ccccc12)NC(=O)[C@H](CCC(N)=O)NC(=O)[C@H](N)CC(N)=O)C(C)C)C(N)=O
3. CCOC(=O)CC(NCc1ccc(/N=C/c2nc3ccc(C(F)(F)F)cc3nc2-c2ccccc2)cc1)C(=O)OCC (configuration not stated)
4. O=C1c2ccc3c4ccccc4n(Cc4ccccc4)c3c2C(=O)N1c1ccccc1

result:
> 100 µM (inactive)
> 12.5 µM (inactive)
27 µM (inactive)
18.3 µM (inactive)

Data credit: ChEMBL document CHEMBL1201862
